ERα ligand binding domain (Homo sapiens, UniProt P03372) pKi data
Sequence (P03372 whole entry, looked up, the tested form may be a part): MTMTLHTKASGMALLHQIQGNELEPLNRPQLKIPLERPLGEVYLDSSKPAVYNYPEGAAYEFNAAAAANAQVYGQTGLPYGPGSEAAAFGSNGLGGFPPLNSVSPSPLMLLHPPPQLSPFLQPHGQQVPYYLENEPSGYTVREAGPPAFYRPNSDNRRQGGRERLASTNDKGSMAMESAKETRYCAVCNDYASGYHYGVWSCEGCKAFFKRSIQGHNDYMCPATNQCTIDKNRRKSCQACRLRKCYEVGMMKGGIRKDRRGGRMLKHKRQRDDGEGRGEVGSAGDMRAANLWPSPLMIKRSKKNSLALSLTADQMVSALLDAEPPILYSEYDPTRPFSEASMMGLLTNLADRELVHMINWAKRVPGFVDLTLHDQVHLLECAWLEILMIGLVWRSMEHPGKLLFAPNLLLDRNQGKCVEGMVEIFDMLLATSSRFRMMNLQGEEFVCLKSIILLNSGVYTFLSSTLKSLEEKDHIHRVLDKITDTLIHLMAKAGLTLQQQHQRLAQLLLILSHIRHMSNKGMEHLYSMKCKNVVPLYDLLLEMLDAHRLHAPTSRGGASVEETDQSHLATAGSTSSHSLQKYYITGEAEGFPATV
Please express pKi as -log10 of the molar concentration.

Any idea what its pKi is? The compound is O=c1c2c(O)cc(O)cc2c(-c2ccccc2)cn1-c1ccc(O)cc1 [15h]
6.91

Try this compound next: C/C=C/c1cn(-c2ccc(O)cc2)c(=O)c2c(O)cc(O)cc12 [15i]
6.99

Try this compound next: N#Cc1cn(-c2ccc(O)cc2)c(=O)c2c(O)cc(O)cc12 [14m]
7.03

Now consider a different compound.
Any idea what its pKi is? The compound is C=Cc1cn(-c2ccc(O)c(F)c2)c(=O)c2c(O)cc(O)cc12 [15c]
6.69
